Provenance of the data: the supplement of paper PMC10567573

B1: INTS4 (parent)
chain: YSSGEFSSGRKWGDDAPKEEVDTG

variants of: B1; assay: protein stability index of a GFP-peptide fusion (GPS, HEK-293T) (PSI 1-6); higher = more stable; conditions: c terminus: a fixed tail appended;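 note: lentivirally expressed fusions sorted by FACS into six bins by GFP to DsRed ratio, PSI derived from sequencing read proportions per bin multiplied by bin number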
Below: a set of entries, each annotated with reported protein stability index.
Answer with a number only.

Here is how some variants turned out for protein stability index.
Chain sequence: YSSGEFSSGRKWGDDAPKEEVDTE [G24E]
protein stability index: 2.74
//
Chain sequence: YSSGEFSSGRPWGDDAPKEEVDTG [K11P]
protein stability index: 2.08

Let's switch to this variant now.
// protein stability index value for YSSGEFSSGRKWGDDAPKEDVDTG [E20D] : 2.49
